Target: androgen receptor (AR) (Homo sapiens, UniProt P10275, T878A)
Construct: wild type androgen receptor (AR) is obtained by isolating cytoplasm fraction from LNCaP cell line; host or cells: LNCaP cytoplasm fraction
Test: competitive steroid binding assay ([3H] methyltrienolone displacement)
pIC50: −log10 of the molar value.
Metric: pIC50

>>> value_measured("N#Cc1ccc(NC(=O)C23CC4CC(CC(C4)C2)C3)cc1C(F)(F)F [Comp. Ex. 1, reference compound]")
4.94

###

Examples of compounds with documented Ratio (%) of decrease in sebum After 4 weeks follow.
System: male and female subjects suffering from excessive secretion of sebum
Test: effect of inhibiting secretion of sebum (Sebumeter SM810)
Format: in vivo
Conditions: nourishing cream including the compound applied every day; after 4 weeks
Metric: Ratio (%) of decrease in sebum After 4 weeks

>>> value_measured("O=C(Nc1ccc([N+](=O)[O-])c(Cl)c1)C12CC3CC(CC(C3)C1)C2 [Example 3]")
27.6
>>> value_measured("Cc1cc(NC(=O)C23CC4CC(CC(C4)C2)C3)ccc1[N+](=O)[O-] [Example 1]")
35.2
>>> value_measured("COc1cc(NC(=O)C23CC4CC(CC(C4)C2)C3)ccc1C#N [Example 5]")
32.8
>>> value_measured("Cc1cc(C(=O)NC23CC4CC(CC(C4)C2)C3)ccc1[N+](=O)[O-] [Example 7]")
29.8
>>> value_measured("O=C(Nc1ccc([N+](=O)[O-])cc1Cl)C12CC3CC(CC(C3)C1)C2 [Example 4]")
29.7
>>> value_measured("COc1cc(C(=O)NC23CC4CC(CC(C4)C2)C3)ccc1[N+](=O)[O-] [Example 8]")
33.7
>>> value_measured("N#Cc1ccc(NC(=O)C23CC4CC(CC(C4)C2)C3)cc1C(F)(F)F [Comp. Ex. 1, reference compound]")
26.2
>>> value_measured("COc1cc(NC(=O)C23CC4CC(CC(C4)C2)C3)ccc1[N+](=O)[O-] [Example 2]")
28.8
>>> value_measured("N#Cc1ccc(NC(=O)C23CC4CC(CC(C4)C2)C3)c(Cl)c1 [Example 6]")
31.4

###

Each item that follows carries a reported activity at 10 µg/mL.
System: Rat-derived follicle dermal papilla cells
Experiment: growth of dermal papilla cells (MTT)
Format: cell-based
Settings: 10 μg/ml, 48 hours, MTT absorbance at 570 nm relative to DMSO control (100), read-out: Ratio (%) of growth of dermal papilla cells
Metric: activity at 10 µg/mL (%)

>>> value_measured("COc1cc(NC(=O)C23CC4CC(CC(C4)C2)C3)ccc1C#N")
145
>>> value_measured("Nc1cc(N2CCCCC2)nc(N)[n+]1[O-] [minoxidil, reference compound]")
120
>>> value_measured("N#Cc1ccc(NC(=O)C23CC4CC(CC(C4)C2)C3)c(Cl)c1")
124
>>> value_measured("N#Cc1ccc(NC(=O)C23CC4CC(CC(C4)C2)C3)cc1C(F)(F)F [Comp. Ex. 1, reference compound]")
114
>>> value_measured("O=C(Nc1ccc([N+](=O)[O-])c(Cl)c1)C12CC3CC(CC(C3)C1)C2")
118
>>> value_measured("COc1cc(NC(=O)C23CC4CC(CC(C4)C2)C3)ccc1[N+](=O)[O-]")
124
>>> value_measured("COc1cc(C(=O)NC23CC4CC(CC(C4)C2)C3)ccc1[N+](=O)[O-]")
125
>>> value_measured("O=C(Nc1ccc([N+](=O)[O-])cc1Cl)C12CC3CC(CC(C3)C1)C2")
130
>>> value_measured("Cc1cc(NC(=O)C23CC4CC(CC(C4)C2)C3)ccc1[N+](=O)[O-]")
124
>>> value_measured("Cc1cc(C(=O)NC23CC4CC(CC(C4)C2)C3)ccc1[N+](=O)[O-]")
123

###

Molecular target: androgen receptor (AR) (Homo sapiens, UniProt P10275, T878A)
Construct: wild type androgen receptor (AR) is obtained by isolating cytoplasm fraction from LNCaP cell line; host or cells: LNCaP cytoplasm fraction
Sequence (P10275 1-920 T878A): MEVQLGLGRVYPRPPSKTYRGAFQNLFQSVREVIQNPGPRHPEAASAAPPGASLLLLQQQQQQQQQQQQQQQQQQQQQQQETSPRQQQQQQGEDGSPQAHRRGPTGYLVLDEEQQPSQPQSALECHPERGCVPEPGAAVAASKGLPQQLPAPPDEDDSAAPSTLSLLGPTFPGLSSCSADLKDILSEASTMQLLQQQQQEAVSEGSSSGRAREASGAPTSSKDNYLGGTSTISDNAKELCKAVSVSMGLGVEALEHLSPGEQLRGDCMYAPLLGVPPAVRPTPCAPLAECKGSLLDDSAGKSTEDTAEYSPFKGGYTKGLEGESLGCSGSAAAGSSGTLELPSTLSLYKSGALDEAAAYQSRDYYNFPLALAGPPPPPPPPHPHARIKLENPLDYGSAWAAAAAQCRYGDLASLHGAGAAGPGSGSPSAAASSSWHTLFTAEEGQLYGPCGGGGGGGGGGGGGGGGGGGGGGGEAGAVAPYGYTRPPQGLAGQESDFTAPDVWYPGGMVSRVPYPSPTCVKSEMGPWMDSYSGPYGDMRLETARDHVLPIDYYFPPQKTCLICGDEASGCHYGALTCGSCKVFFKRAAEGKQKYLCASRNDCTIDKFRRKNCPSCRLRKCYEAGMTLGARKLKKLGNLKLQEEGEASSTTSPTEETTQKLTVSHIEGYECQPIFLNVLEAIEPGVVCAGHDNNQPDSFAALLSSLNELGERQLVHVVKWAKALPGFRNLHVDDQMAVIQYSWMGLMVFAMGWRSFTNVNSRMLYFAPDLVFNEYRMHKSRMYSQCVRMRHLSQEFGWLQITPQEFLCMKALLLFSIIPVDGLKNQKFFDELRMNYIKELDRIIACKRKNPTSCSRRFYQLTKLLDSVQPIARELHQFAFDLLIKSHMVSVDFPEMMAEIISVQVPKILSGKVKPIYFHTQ
Test: competitive steroid binding assay ([3H] methyltrienolone displacement)
Conditions: wild type AR from LNCaP cytoplasm fraction; [3H] methyltrienolone; 4° C. for 24 hours
Metric: IC50 (nM)

>>> value_measured("O=C(Nc1ccc([N+](=O)[O-])cc1Cl)C12CC3CC(CC(C3)C1)C2")
1400
>>> value_measured("COc1cc(NC(=O)C23CC4CC(CC(C4)C2)C3)ccc1C#N")
2200
>>> value_measured("O=C(Nc1cccc([N+](=O)[O-])c1)C12CC3CC(CC(C3)C1)C2")
13500
>>> value_measured("COc1cc(NC(=O)C23CC4CC(CC(C4)C2)C3)ccc1F")
14800
>>> value_measured("COc1cc(C(=O)NC23CC4CC(CC(C4)C2)C3)ccc1[N+](=O)[O-]")
740
>>> value_measured("Cc1cc(NC(=O)C23CC4CC(CC(C4)C2)C3)ccc1[N+](=O)[O-]")
1200
>>> value_measured("COc1cc(NC(=O)C23CC4CC(CC(C4)C2)C3)ccc1Br")
5300

###

Target: androgen receptor (AR) (Homo sapiens, UniProt P10275, T878A)
Construct: wild type androgen receptor (AR) is obtained by isolating cytoplasm fraction from LNCaP cell line; host or cells: LNCaP cytoplasm fraction
Assay: competitive steroid binding assay ([3H] methyltrienolone displacement)
Settings: wild type AR from LNCaP cytoplasm fraction; [3H] methyltrienolone; 4° C. for 24 hours
pIC50: −log10 of the molar value.
Metric: pIC50

>>> value_measured("COc1cc([N+](=O)[O-])ccc1NC(=O)C12CC3CC(CC(C3)C1)C2")
5.92
>>> value_measured("COc1cc(NC(=O)C23CC4CC(CC(C4)C2)C3)ccc1[N+](=O)[O-]")
6.62
>>> value_measured("O=C(Nc1ccc([N+](=O)[O-])c(Cl)c1)C12CC3CC(CC(C3)C1)C2")
6.36
>>> value_measured("Cc1cc(C(=O)NC23CC4CC(CC(C4)C2)C3)ccc1[N+](=O)[O-]")
5.72
>>> value_measured("N#Cc1ccc(NC(=O)C23CC4CC(CC(C4)C2)C3)c(Cl)c1")
5.62
